Recorded values, source patent US20240317871A1.

Listed next: entries and their corresponding kon.
# Study target: T1, His-tagged human HVEM (human, UniProt Q92956 39-202, limits assumed)
# T1 construct: Analyte of the BLI assay, 200 nM in PBS; not shown: His tag
# T1 sequence (looked up): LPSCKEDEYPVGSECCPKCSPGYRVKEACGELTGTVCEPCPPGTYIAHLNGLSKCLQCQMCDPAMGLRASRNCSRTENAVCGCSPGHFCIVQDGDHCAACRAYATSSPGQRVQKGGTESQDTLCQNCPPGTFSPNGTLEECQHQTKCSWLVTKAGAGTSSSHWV
# Assay procedure: BLI OctetRed96, mAb captured, 200 nM His-HVEM
The answer should read as a number with its unit following.

Guide cases for kon, answers given:
[
  {
    "Binder": "Ab_058 (H5S19-6A8A) (antibody, V domains shown, also called Ab_58) VH: EVQLVESGGGLVKPGGSLKLSCAASGFTFNIYTMSWVRQSPEMRLEWVAEISSGGSHTYYPDTVTGRFTISRDNAKNTLYLEMSSLRSEDTAIYYCARGGSLFDYWGQGTTLTVSS VL: DVQITQSPSYLAASPGETITINCRTSKNISKYLAWYQEKPGKTNKLLIYSGSTLQSGIPSRFSGSGSGTDFTLTISSLEPEDFVMYHCQQHNEYPWTFGGGTKLEIK",
    "Result value": "469000 M⁻¹ s⁻¹"
  },
  {
    "Binder": "Ab_036 (H5S15-12A13A) (antibody, V domains shown, also called Ab_36) VH: EVQLQQSGAELVKPGASVKLSCTASGFNIKDTYMHWVKQRPEQGLEWIGRIDPANGNTKFDPKFQGKATITADTSSNTAYLQLSSLTSEDTAVYYCASRGGSSFDYWGQGTTLTVSS VL: DIVLTQSPASLAVSLGQRATISCKASQSVDYDGESYMNWYQQKPGQPPKLLIYAASNLDSGIPARFSGSGSGTDFTLNIHPVEEEDAATYYCQQSNEDPLTFGAGTKLELK",
    "Result value": "571000 M⁻¹ s⁻¹"
  },
  {
    "Binder": "Ab_028 (H5S15-33A29A) (antibody, V domains shown, also called Ab_28) VH: QVQLKQSGPGLVQPSQSLSITCTVSGFSLTTYGVHWVRQSPGKGLEWLGVIWSGGNTDYNPAFISRLSISKDNSKSQVFFKMNTLQASDTAIYYCARRGYNKGYAMDYWGQGTSFTVSS VL: EIVLTQSPALMTASPGEKVTITCSVSSTISSRNLHWYQQKSEASPKPWIYGTSNLASGVPVRFSGSGSGTSYSLTISSMEAEDAATYYCQQWNSYPLTFGSGTKLEIK",
    "Result value": "386000 M⁻¹ s⁻¹"
  },
  {
    "Binder": "Ab_063 (H5S20-4A4A) (antibody, V domains shown, also called Ab_159; Ab_63) VH: EVKLVESGGGLMKPGGSLKLSCAASGFTFSSYAMSWVRQTPETRLEWVASISSGGSTYYPDSVKGRFTISRDNVRNILYLQMSSLRSEDTAMYFCTRGGYGSSYVIWGQGTTLTVSS VL: DIVMSQSPSSLAVSVGEKITMSCKSSQSLLFSSIQKNYLAWYQQKPGQSPKLLVYWASTRESGVPDRFTGSGSGTDFTLTISSVKAEDLAVYYCQQYYSYPFTFGSGTKLEIK",
    "Result value": "528000 M⁻¹ s⁻¹"
  }
]

# next binder below
Kindly note the recorded kon for Ab_087 (H5S20-59A43A) (antibody, V domains shown, also called Ab_87) VH: EVKLVESGGGLVKPGGSLKLSCAASGFTFSSYAMSWVRQTPEKRLEWVASISSGSSTYYPDSVKGRFTISRDNARNILYLQMSSLRSEDTAMYYCAKGRGYGNYLYAMDYWGQGTSVTVSS VL: DIVMTQSQKFMSTSVGDRVSVTCKASQNVGTNVAWYQQKPGQSPKALIYSASYRYSGVPDRFTGSGSGTDFTLTISNVQSEDLAEYFCQQYNSYPLTFGGGTKLEIK , which is 206000 M⁻¹ s⁻¹
